tested on: nutsedge, yellow; test: Test C pre-/postemergence herbicide test; type: in vivo, Cyperus esculentus; settings: Postemergence, 62 g ai/ha; scale 0 to 100 (0 no effect, 100 complete control)
Hi there, I'd appreciate the recorded Plant response rating, Nutsedge, Yellow for every entry that follows.
Format: numeric value only, no unit, no commentary.

Input line: Answer with reported Plant response rating, Nutsedge, Yellow of Cc1c(F)cccc1NC(=O)C1C(=O)NCC1c1ccc(F)c(F)c1 (racemic) [Compound 106]
Output line: 0

Input line: Answer with reported Plant response rating, Nutsedge, Yellow of O=C1NCC(c2cc(F)c(F)cc2F)C1C(=O)Nc1cccc(F)c1F (stereo not shown) [Compound 50]
Output line: 0

Input line: Answer with reported Plant response rating, Nutsedge, Yellow of O=C1NCC(c2cc(F)c(F)c(F)c2)C1C(=O)Nc1cccc(F)c1F (stereo not shown) [Compound 48]
Output line: 0

Input line: Answer with reported Plant response rating, Nutsedge, Yellow of O=C1NCC(c2ccc(F)c(F)c2)C1C(=O)Nc1cccc(F)c1F (stereo not shown) [Compound 17]
Output line: 0
